System: TK-10
Experiment description: NCI tumour cell line growth inhibition, 48 h
The source made the active and inactive calls. No stated cut-off is given here; in the data, active = GI50 up to about 1.1 µM and inactive = higher.
Reported GI50 values for a set of compounds

Worked cases, GI50 given:
>>> experimental_value("CC(C)(C)c1cc(-c2c3nc(c(-c4cc(C(C)(C)C)cc(C(C)(C)C)c4)c4ccc([nH]4)c(-c4cc(C(C)(C)C)cc(C(C)(C)C)c4)c4nc(c(-c5cc(C(C)(C)C)cc(C(C)(C)C)c5)c5ccc2[nH]5)C=C4)C=C3)cc(C(C)(C)C)c1")
"> 100 µM (inactive)"
>>> experimental_value("CC1=C(C(=O)Nc2ccccc2C)C(c2ccc([N+](=O)[O-])cc2)C(C(=O)Nc2ccccc2C)=C(C)N1")
"46.1 µM (inactive)"
>>> experimental_value("CC(=O)OCc1cncn1S(=O)(=O)c1ccc(C)cc1")
"> 100 µM (inactive)"
>>> experimental_value("N#CCN1CCN(CC#N)CCN(CC#N)CCN(CC#N)CC1")
"> 100 µM (inactive)"
>>> experimental_value("Cc1cc(Cl)ccc1NC(=O)CC1SC(N)=NC1=O (stereo not drawn)")
"> 100 µM (inactive)"

Lookup: GI50 / TK-10 / CCCCSN1C(=O)c2ccccc2C1=S
> 100 µM (inactive)

Lookup: GI50 / TK-10 / O=S(=O)(CCn1c(Sc2ccccc2)c(Sc2ccccc2)c2ccccc21)c1ccccc1
> 100 µM (inactive)

Lookup: GI50 / TK-10 / COC(=O)[C@]1(c2cc3ccccc3[nH]2)CC2CN(C(=O)OCc3ccccc3)C1CC2=O (stereo partly drawn)
53.5 µM (inactive)

Lookup: GI50 / TK-10 / CC(C)(C)c1cc(/C=C(\C#N)C2=NCCO2)cc(C(C)(C)C)c1O
3.48 µM (inactive)

Lookup: GI50 / TK-10 / Cc1ccc(Nc2c3c(c(C#N)c4nc5ccccc5n24)CCCC3)cc1
25.5 µM (inactive)

Lookup: GI50 / TK-10 / COc1cc(C=O)cc(/C=N/n2c3ccccc3c3ccccc32)c1O
36.9 µM (inactive)

Lookup: GI50 / TK-10 / CC1(C)CC(N(C(=O)/C=C/c2ccc([N+](=O)[O-])o2)C2CCCCC2)CC(C)(C)N1
21.3 µM (inactive)

Lookup: GI50 / TK-10 / CC(C)C(=O)Nc1nc2[nH]cnc2c(=O)[nH]1
> 100 µM (inactive)

---

Test system: DMS-273
Experiment description: NCI tumour cell line growth inhibition, 48 h
Active and inactive are the calls of the source. Rule as the data show it: active = GI50 up to about 1.1 µM and inactive = higher.
Outcome (select one): TRUE = active, FALSE = inactive

>>> discrete_label("Cc1nc(O)nc(O)c1/C=C/C(=O)O")
"FALSE"

I would be grateful if you could indicate the recorded call for Clc1ccccc1CN1COc2c(ccc3cccnc23)C1 .
FALSE

I would be grateful if you could indicate the recorded call for O=C1c2cccc3cc([N+](=O)[O-])cc(c23)C(=O)N1NC1=NCCN1 .
FALSE

I would be grateful if you could indicate the recorded call for COC(=O)C1C(=O)CC2CCCCC21 (stereo not given) .
FALSE

I would be grateful if you could indicate the recorded call for O=C(Nc1ccc(Nc2ccc(NC(=O)c3ccccc3)c3c2C(=O)c2ccccc2C3=O)c2c1C(=O)c1ccccc1C2=O)c1ccccc1 .
FALSE

I would be grateful if you could indicate the recorded call for O=C1c2ccc3c4ccccc4n(-c4ccccc4)c3c2C(=O)N1c1ccc(Cl)cc1 .
FALSE
